- test-name: inhibitors of hydroxyurea-induced Chk1 phosphorylation, primary screen, imaging, HeLa, phospho-Chk1 nuclear intensity (AID 1187); also: test concentration not given here
- study-conditions: hydroxyurea-induced phospho-Chk1 immunofluorescence imaging, higher = more signal
# cutoff -0.6 applies to z-score; >= gives t, < gives f

Known results for compounds:
1. O=C(NCc1ccccc1)[C@@H]1c2ccccc2C(=O)N(Cc2ccccc2C(F)(F)F)[C@H]1c1ccc(CO)cc1 :: f
2. [N-]=[N+]=NCc1ccccc1C[C@@]1(C(=O)N2CCOCC2)N=C(c2ccc(OCCCO)cc2)O[C@@H]1c1ccccc1 :: t
3. C[N+](C)(C)CCCC[C@@H]1NC(=O)[C@H]2C[C@@H](C(=O)NCCCCCCN)[C@@H](c3ccc(O)cc3)N2C1=O :: t
4. CN(C)c1ccc(C(O)C2C=CC3C(=O)N(c4ccccc4)C(=O)C3N2Nc2ccc([N+](=O)[O-])cc2)cc1 (configuration not stated) :: t
5. C=CCC(OC(C)=O)[C@@H]1[C@@H](N(Cc2cc3ccccc3o2)C(=O)Cc2ccc(F)cc2)c2cc(OCCCO)ccc2N1C(=O)c1ccc2ccccc2c1 (some centres not stated) :: t
6. COc1ccc(C#Cc2ccc3c(c2)[C@]2(C(=O)N3)[C@H](c3ccc(O)cc3)N3[C@H](c4ccccc4)[C@H](c4ccccc4)OC(=O)[C@H]3[C@@H]2C(=O)O)cc1 :: f

Please find the next compound below.
Query string: Can `CC(C)C(=C=CC[C@H](O)c1cccc(OCCO)c1)C[C@H](O)c1cc(Cl)cc(Cl)c1O` be said to have z-score at or above -0.6?
Result string: t

====

- Tested on: Human papillomavirus type 1a E7 protein (residues 1-88)
- test-name: HPV1a E7 small-molecule binders, primary screen, biochemical, small-molecule microarray, residues 1-88, 635 nm (AID 1129)
- study-conditions: small-molecule microarray binding, fluorescence 635 nm; higher = more signal
attribute-measured: composite z-score
Answers are plain numbers.

Worked examples, 3 molecules total:
1) O=C1OCCC/C=C\[C@H]2OC34C=CCN(CCN5CCOCC5)C(=O)[C@H]3N(CCCCCCO)C(=O)[C@@H]4C12 (some centres undefined) :: 0.167
2) CCCNC(=O)[C@@]1(c2ccc([N+](=O)[O-])cc2)CC(=O)N(C2CCCCC2)[C@@H]1c1ccc(CO)cc1 :: 1.24
3) C=CC[C@]1(C(=O)NCCN2CCOCC2)N=C(c2ccc(OCCCO)cc2)O[C@H]1c1ccccc1CN=[N+]=[N-] :: 1.18

--- query ---
Query string: Param readout= composite z-score; system= Human papillomavirus type 1a E7 protein (residues 1-88); entry= C=CCC(OC(C)=O)[C@@H]1[C@@H](N(Cc2ccc(-c3ccccc3)cc2)C(=O)Cc2ccc(F)cc2)c2cc(OCCCO)ccc2N1C(=O)Cc1ccc(OC)cc1 (some centres undefined) ; returns value.
Result string: -0.212

====

- System: Wnt5a (protein binding on small-molecule microarray)
- test-name: Wnt5a binders on small-molecule microarray, primary screen, biophysical, 635/667 nm fluorescence (AID 1142);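 also: fluorescence read at 667 nm with signal to noise per printed feature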
- study-conditions: 635 nm fluorescence, higher = more signal
Provide the reported composite z-score of each item.
Answers are plain numbers.

Some molecules with known composite z-score results, for comparison:
1) C=CCOC(=O)[C@H]1[C@@H]2C(=O)O[C@@H](c3ccccc3)[C@@H](c3ccccc3)N2[C@@H](c2ccc(OCCOC(=O)[C@@H]3C[C@@H]4C(=O)N[C@@H](CCCCNC(C)=O)C(=O)N4[C@@H]3c3ccc(O)cc3)cc2)[C@]12C(=O)Nc1ccc(I)cc12 :: 0.804
2) COCCCNC(=O)[C@]1(CCS(=O)(=O)c2ccccc2)N=C(c2ccc(OCCCO)cc2)O[C@@H]1c1ccccc1N=[N+]=[N-] :: 1.02
3) C=C(C)c1cc2c(c(CCCCCC)n1)[Si](C(C)C)(C(C)C)OC2 :: -0.712
4) COC(=O)[C@@]1(Cc2ccc(OC)cc2)[C@@H]2C(=CC(=O)[C@H]2CC(=O)C(=O)N(C)C)CN1C(=O)c1ccccc1 :: 0.956

// batch mode: one composite z-score value per listed entry
1. [N-]=[N+]=NCc1ccccc1C[C@@]1(C(=O)NCc2ccccc2)N=C(c2ccc(OCCCO)cc2)O[C@@H]1c1ccccc1N=[N+]=[N-]
2. COc1ccc(CN(C2=CC[C@@]3(C(N)=O)C(=O)C(Cl)=C(Cl)C(=O)[C@@]3(C#N)C2)S(=O)(=O)c2ccc(Br)cc2)cc1
3. COc1cc2c(cc1OC)CN(C(=O)[C@@H]1[C@H]3C(=O)O[C@H](c4ccccc4)[C@H](c4ccccc4)N3[C@H](c3ccc(OCCO)cc3)[C@@]13C(=O)Nc1ccc(C#CC4(O)CCCCCC4)cc13)CC2
4. COCCOC(=O)N1C(=O)[C@@]2(c3cc(C#Cc4ccc(OC)cc4)ccc31)[C@H](C(=O)Nc1nc3ccccc3s1)[C@H]1C(=O)O[C@H](c3ccccc3)[C@H](c3ccccc3)N1[C@@H]2c1ccc(OCCO)cc1
5. CN(C)C(=O)[C@@]1(Cc2ccccc2CN=[N+]=[N-])N=C(c2ccc(OCCCO)cc2)O[C@H]1c1ccccc1CN=[N+]=[N-]
6. C=C(CCCC)/C(=C/C[C@@H](OC(=O)c1ccncc1)c1ccccc1OCCO)c1cnc2ccccc2c1
7. [N-]=[N+]=NCc1ccccc1C[C@@]1(C(=O)N2CCCCC2)N=C(c2ccc(OCCCO)cc2)O[C@@H]1c1ccccc1

Result string:
1: 0.122; 2: -0.0312; 3: 0.754; 4: 0.755; 5: 0.507; 6: 0.944; 7: 0.462

Query string: What value of composite z-score has been reported for the following molecule? `COCCOC(=O)N1C(=O)[C@@]2(c3cc(C#CCCO)ccc31)[C@H](C(=O)Nc1nc3ccccc3s1)[C@H]1C(=O)O[C@H](c3ccccc3)[C@H](c3ccccc3)N1[C@@H]2c1ccccc1OCCO`
Result string: 0.585
